Data credit: ChEMBL document CHEMBL3877296

experiment: Cytotoxicity against human HCT116 cells assessed as growth inhibition after 48 hrs by MTT assay; assay type: functional, cell-based; conditions: HCT-116, 48 h
measure: pIC50
// field semantics: pIC50 = negative decimal log of concentration (mol/L)

[
  {
    "smi": "COc1ccc(CSc2nnc(-c3cc(OC)c(OC)c(OC)c3)n2-c2ccc(N(C)C)cc2)cc1",
    "measure": "pIC50",
    "experimental_value": 5.94
  },
  {
    "smi": "COc1ccc(-n2c(SCc3ccc(C)cc3)nnc2-c2cc(OC)c(OC)c(OC)c2)cc1",
    "measure": "pIC50",
    "experimental_value": 4.48
  },
  {
    "smi": "COc1ccc(-n2c(SCc3ccccc3)nnc2-c2cc(OC)c(OC)c(OC)c2)cc1",
    "measure": "pIC50",
    "experimental_value": 4.37
  },
  {
    "smi": "COc1cc(-c2nnc(SCC(=O)c3ccc(F)cc3)n2-c2ccc(N(C)C)cc2)cc(OC)c1OC",
    "measure": "pIC50",
    "experimental_value": 4.51
  }
]

Give the measured pIC50 for `COc1cc(-c2nnc(SCc3ccccc3)n2-c2ccc(N(C)C)cc2)cc(OC)c1OC`
4.27
